Values compiled from the supplement of paper PMC12783771.

B1: library; a variant is named by its letters at X, in order (parent)
chain: MNIQIGELAKRTACPVVTIRFYEQEGLLPPPGRSRGNFRLYGEEHVERLQFIRHCRSLDMPLSXVRTLLSYRKRPDQDCGEVXMLLDEHIRQVESRIGALLELXHHXVELREACSGARPAQSCGILQXLSXCVCXTRGTTAHXSD

- Variants of: B1
- experimentalProtocol: sfGFP reporter fluorescence (15 h) (µM FITC); higher = stronger transcriptional activation
- measurementSetup: library round: Round 3; ligand: 1 µM Pb
testReadout: sfGFP reporter fluorescence
Answer with a bare number; do not write a unit.

// solved cases for sfGFP reporter fluorescence follow
1) DCKLGADY V16C H106A | 0.232
2) DTKLGSPP Q121A | 0.186
3) KNKCGADP M60L P61N | 2.95
4) DNKLHAPW L101V | 0.307
5) DTKLGSPP V108L | 0.127
6) KFVLGDDR H106N | 1.16
7) DSKLGSPP V108L | 0.121
8) KNVCGDDP M60L P61S | 3.29
9) DTKCIDAP I125L | 0.0617
10) KNKCTDDP M60L P61N | 3.48

Now, please, on to the next variant.
What value of sfGFP reporter fluorescence has been recorded for this entry: `DSKLGHPY` 0.112
